Molecular target: T1, human BCMA on NCI-H929, OPM2 and Raji cells (human, UniProt Q02223 1-184)
T1 chain: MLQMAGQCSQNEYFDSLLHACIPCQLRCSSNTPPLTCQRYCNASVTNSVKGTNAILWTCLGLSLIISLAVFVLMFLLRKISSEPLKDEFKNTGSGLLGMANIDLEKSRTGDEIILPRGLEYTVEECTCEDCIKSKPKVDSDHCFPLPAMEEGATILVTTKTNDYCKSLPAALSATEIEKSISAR
Assay: cell-based or functional assay
parameter: LD50 (nM) OPM2.1, cell viability
Output spec: scalar in nM, unitless text.

Lab note: measured LD50 (nM) OPM2.1, cell viability of AB214-ADL1-D2-02 (antibody, human IgG1, kappa, V domains shown, ADL1-D2 linker-payload on cysteine residues of the antibody, DAR 4.12) VH: QVQLVQSGAEVKKPGSSVKVSCKASGGTFSNYWIHWVRQAPGQGLEWMGATYRSQSDTYYNQKYKSRVTITADKSTSTAYMELSSLRSEDTAVYYCARGAVYHGYDVIDNWGQGTLVTVSS VL: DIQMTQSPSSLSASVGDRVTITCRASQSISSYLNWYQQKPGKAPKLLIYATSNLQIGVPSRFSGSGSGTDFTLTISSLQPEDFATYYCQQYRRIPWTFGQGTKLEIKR was 25.1
